# Tested on: Plasmodium falciparum
# measurement-notes: GSK_TCMDC: Inhibition of Plasmodium falciparum 3D7 in whole red blood cells, using parasite LDH activity as an index of growth. Test compounds present at 2uM
# Type: functional
Item-by-item account of Inhibition
Only the number, expressed in %, is required.

Sample answers from the record:
- compound: "O=S(=O)(Nc1ccc(CCN2CCC(N3CCCCC3)CC2)cc1)c1cccc2cccnc12"
  Inhibition [%]: 100
- compound: "Cn1cncc1C(=O)Nc1cccc(-c2ccc(-c3nc4cc(F)ccc4[nH]3)cc2)c1"
  Inhibition [%]: 100
- compound: "Cl.O=C(/C=C/c1ccc(F)cc1)NC1CCC(CCN2CCc3ccc(-n4cccn4)cc3CC2)CC1 (configuration not stated)"
  Inhibition [%]: 89

Kindly review the next compound as well.
Exam item: # lookup: Plasmodium falciparum Inhibition, key = `CN1CCN(CC(=O)Nc2cccc(-c3ccc(-c4nc5cc(C(F)(F)F)ccc5[nH]4)s3)c2)CC1`
Marked response: 100
